- assay text: Absorption maxima of the chromogen and associated extinction coefficients
- Assay type: physicochemical
- experimental parameters: 0.1 mole/l. potassium phosphate buffer (pH 7.0)
The following compounds are shown together with reported lambda max values.
Report only the number, with the unit nm understood.

Examples with answers:
compound | scale unit | lambda max
O=[N+]([O-])c1ccc(O)c(Cl)c1 | nm | 405
N#Cc1cc([N+](=O)[O-])ccc1O [2-CN-4-nitrophenol, 2-Hydroxy-5-nitrobenzonitrile] | nm | 376
O=[N+]([O-])c1ccccc1O | nm | 408

Quick check: lambda max of `O=[N+]([O-])c1ccc(O)c(C(F)(F)F)c1` ?
384

====

- Test system: β-galactosidase formed from EA22 enzyme acceptor and ED4-thyroxine T4 conjugate
- assay text: T4/CEDIA test (thyroxine T4 as hapten, monoclonal antibodies against T4), gradient of the calibration curve
- Format: biochemical
- experimental parameters: Hitachi 704, 37° C., substrate 1 mg./ml., 376 or 415 nm, percentage of 2-nitrophenyl-β-galactoside (=100%)
The following compounds are shown together with reported relative gradient of the calibration curve values.
Report only the number, with the unit % understood.

Examples with answers:
compound | observed value
O=[N+]([O-])c1ccc(O[C@@H]2O[C@H](CO)[C@H](O)[C@H](O)[C@H]2O)c(C(F)(F)F)c1 | 528
O=[N+]([O-])c1ccc(O[C@@H]2O[C@H](CO)[C@H](O)[C@H](O)[C@H]2O)c(Cl)c1 [Example 2-Cl-4-NPG, reference compound] | 494
N#Cc1cc([N+](=O)[O-])ccc1O[C@@H]1O[C@H](CO)[C@H](O)[C@H](O)[C@H]1O | 561

Quick check: relative gradient of the calibration curve of O=[N+]([O-])c1ccccc1O[C@@H]1O[C@H](CO)[C@H](O)[C@H](O)[C@H]1O [oNPG, 2-nitrophenyl-β-D-galactopyranoside, reference compound] ?
100

====

- system: β-galactosidase (Escherichia coli, UniProt P00722)
- Construct: not the CEDIA donor/acceptor fragments
- Sequence (P00722 2-1024): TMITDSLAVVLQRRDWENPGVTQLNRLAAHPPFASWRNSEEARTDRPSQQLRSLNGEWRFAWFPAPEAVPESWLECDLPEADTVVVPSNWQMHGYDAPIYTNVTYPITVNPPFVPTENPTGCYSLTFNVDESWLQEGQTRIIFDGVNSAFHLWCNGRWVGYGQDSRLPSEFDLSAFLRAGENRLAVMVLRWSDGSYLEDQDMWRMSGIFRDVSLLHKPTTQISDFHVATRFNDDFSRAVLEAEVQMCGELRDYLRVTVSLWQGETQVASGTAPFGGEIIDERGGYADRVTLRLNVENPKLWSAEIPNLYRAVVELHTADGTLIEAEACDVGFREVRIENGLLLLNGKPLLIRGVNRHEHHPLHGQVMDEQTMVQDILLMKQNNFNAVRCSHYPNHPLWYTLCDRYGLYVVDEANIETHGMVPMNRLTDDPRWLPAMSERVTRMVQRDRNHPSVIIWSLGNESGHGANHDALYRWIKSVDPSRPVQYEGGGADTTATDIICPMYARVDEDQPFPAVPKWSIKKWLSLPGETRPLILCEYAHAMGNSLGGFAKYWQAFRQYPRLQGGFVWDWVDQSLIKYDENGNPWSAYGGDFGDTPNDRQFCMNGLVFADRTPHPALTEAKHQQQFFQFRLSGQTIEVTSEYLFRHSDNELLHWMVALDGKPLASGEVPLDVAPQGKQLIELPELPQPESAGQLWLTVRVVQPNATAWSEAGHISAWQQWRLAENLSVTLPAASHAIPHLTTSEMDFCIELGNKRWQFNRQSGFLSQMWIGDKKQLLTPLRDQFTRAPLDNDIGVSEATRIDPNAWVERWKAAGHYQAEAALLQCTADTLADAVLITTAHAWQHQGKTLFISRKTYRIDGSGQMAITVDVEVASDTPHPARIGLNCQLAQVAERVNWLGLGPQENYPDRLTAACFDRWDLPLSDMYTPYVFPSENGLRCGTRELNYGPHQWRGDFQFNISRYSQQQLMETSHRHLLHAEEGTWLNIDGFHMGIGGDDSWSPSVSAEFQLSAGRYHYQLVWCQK
- assay text: Enzyme activity: extinction change per minute with identical amounts of β-galactosidase (sensitivity and enzymatic cleavage rate of substrates)
- Assay type: biochemical
- experimental parameters: measured at the absorption maximum of the particular chromogen (405/376/384/408 nm), 0.05M potassium phosphate buffer pH 7.0
metric: extinction change per minute (mE/min.)
Report only the number, with the unit mE/min. understood.

Examples with answers:
molecule | system | extinction change per minute / mE/min.
O=[N+]([O-])c1ccccc1O[C@@H]1O[C@H](CO)[C@H](O)[C@H](O)[C@H]1O [oNPG, 2-nitrophenyl-β-D-galactopyranoside, reference compound] | β-galactosidase (Escherichia coli, UniProt P00722) | 0.024
O=[N+]([O-])c1ccc(O[C@@H]2O[C@H](CO)[C@H](O)[C@H](O)[C@H]2O)c(C(F)(F)F)c1 | β-galactosidase (Escherichia coli, UniProt P00722) | 0.109
O=[N+]([O-])c1ccc(O[C@@H]2O[C@H](CO)[C@H](O)[C@H](O)[C@H]2O)c(Cl)c1 [Example 2-Cl-4-NPG, reference compound] | β-galactosidase (Escherichia coli, UniProt P00722) | 0.085

Pending molecule:
Quick check: extinction change per minute of `N#Cc1cc([N+](=O)[O-])ccc1O[C@@H]1O[C@H](CO)[C@H](O)[C@H](O)[C@H]1O` ?
0.150
